Quick list: viability, T/C per entry.
# Tested on: KRAS-mutant PDC multicell tumor spheroid viability
# protocol details: Anticancer human tumor 521955-158-R2-J5-PDC patient-derived pancreatic carcinoma cell line growth inhibition [KRAS2]
# condition notes: second compound 10 µM; first compound 0.0316 µM; stronger effect = lower value
# Source text: Multicellular complex tumor spheroid response to RAS pathway inhibitors in combination with a targeted agents in patient-derived cell lines with oncogenic KRAS variants from multiple cancer types A high-throughput screen of multi-cell type tumor spheroids was designed to identify active combinations of targeted small molecules and KRAS pathway inhibitors. […] Compounds. […] If the clinical Cmax for an agent had not been determined, the highest concentration tested was 10 microM. […]

compound: CC(C)NCC(C(=O)N1CCN(c2ncnc3c2C(C)CC3O)CC1)c1ccc(Cl)cc1 (stereo not drawn) + CC1OCC2(CCN(c3cnc(Sc4ccnc(N)c4Cl)c(N)n3)CC2)C1N
viability, T/C, %: 54.1
--
compound: CCNC(=O)CC1N=C(c2ccc(Cl)cc2)c2cc(OC)ccc2-n2c(C)nnc21 (stereo not drawn) + C=CC(=O)N1CCN(c2nc(=O)n(-c3c(C)ccnc3C(C)C)c3nc(-c4c(O)cccc4F)c(F)cc23)C(C)C1
viability, T/C, %: 66.5
--
compound: O=C(c1cc(Cc2n[nH]c(=O)c3ccccc23)ccc1F)N1CCN(C(=O)C2CC2)CC1 + C=CC(=O)N1CCN(c2nc(=O)n(-c3c(C)ccnc3C(C)C)c3nc(-c4c(O)cccc4F)c(F)cc23)C(C)C1
viability, T/C, %: 63.5

* * *

# Test system: KRAS-mutant PDC multicell tumor spheroid viability
# protocol details: Anticancer human tumor 521955-158-R2-J5-PDC cell line growth inhibition [KRAS2];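 note: viability read after seven days of drug exposure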
# condition notes: second compound 0.1 µM; first compound 0.1 µM; stronger effect = lower value
Quick list: viability, T/C per entry.
measurement type: viability, T/C (%)

molecule: CCNC(=O)CC1N=C(c2ccc(Cl)cc2)c2cc(OC)ccc2-n2c(C)nnc21 (stereo unspecified) + COc1cc2nc(C)nc(NC(C)c3cc(N)cc(C(F)(F)F)c3)c2cc1OC1CCOC1
measurement type: viability, T/C
experimental value: 79.5
--
molecule: COC(=O)c1ccc2c(C(=Nc3ccc(N(C)C(=O)CN4CCN(C)CC4)cc3)c3ccccc3)c(O)[nH]c2c1 + CNCc1ccccc1-c1csc(C(C)Nc2nc(C)nc3cc(OC)c(OC)cc23)c1
measurement type: viability, T/C
experimental value: 111
--
molecule: O=C(c1cc(Cc2n[nH]c(=O)c3ccccc23)ccc1F)N1CCN(C(=O)C2CC2)CC1 + C=CC(=O)N1CCN(c2nc(OCC3CCCN3C)nc3c2CCN(c2cccc4cccc(C)c24)C3)CC1CC#N
measurement type: viability, T/C
experimental value: 94.9
--
molecule: CC1COCCN1c1cc(-c2ccnn2C)c2ccnc(-c3ccn[nH]3)c2n1 (stereo unspecified) + C=CC(=O)N1CCN(c2nc(OCC3CCCN3C)nc3c2CCN(c2cccc4cccc(C)c24)C3)CC1CC#N
measurement type: viability, T/C
experimental value: 9.45
--
molecule: CC(C)n1nc(-c2ccc3oc(N)nc3c2)c2c(N)ncnc21 + CNCc1ccccc1-c1csc(C(C)Nc2nc(C)nc3cc(OC)c(OC)cc23)c1
measurement type: viability, T/C
experimental value: 25.2
--
molecule: O=C(c1cc(Cc2n[nH]c(=O)c3ccccc23)ccc1F)N1CCN(C(=O)C2CC2)CC1 + COc1cc2nc(C)nc(NC(C)c3cc(N)cc(C(F)(F)F)c3)c2cc1OC1CCOC1
measurement type: viability, T/C
experimental value: 71.2
--
molecule: CC(=O)OC12COC1CC(O)C1(C)C(=O)C(O)C3=C(C)C(OC(=O)C(O)C(NC(=O)OC(C)(C)C)c4ccccc4)CC(O)(C(OC(=O)c4ccccc4)C21)C3(C)C (stereo unspecified) + COc1cc2nc(C)nc(NC(C)c3cc(N)cc(C(F)(F)F)c3)c2cc1OC1CCOC1
measurement type: viability, T/C
experimental value: 14.5
--
molecule: O=C(c1cc(Cc2n[nH]c(=O)c3ccccc23)ccc1F)N1CCN(C(=O)C2CC2)CC1 + CNCc1ccccc1-c1csc(C(C)Nc2nc(C)nc3cc(OC)c(OC)cc23)c1
measurement type: viability, T/C
experimental value: 106
--
molecule: COC(=O)c1ccc2c(C(=Nc3ccc(N(C)C(=O)CN4CCN(C)CC4)cc3)c3ccccc3)c(O)[nH]c2c1 + CC1OCC2(CCN(c3cnc(Sc4ccnc(N)c4Cl)c(N)n3)CC2)C1N
measurement type: viability, T/C
experimental value: 80.7
--
molecule: COc1cc2nccc(Oc3ccc(NC(=O)C4(C(=O)Nc5ccc(F)cc5)CC4)cc3)c2cc1OC + C=CC(=O)N1CCN(c2nc(OCC3CCCN3C)nc3c2CCN(c2cccc4cccc(C)c24)C3)CC1CC#N
measurement type: viability, T/C
experimental value: 108
--
molecule: COc1cc2nccc(Oc3ccc(NC(=O)C4(C(=O)Nc5ccc(F)cc5)CC4)cc3)c2cc1OC + COc1cc2nc(C)nc(NC(C)c3cc(N)cc(C(F)(F)F)c3)c2cc1OC1CCOC1
measurement type: viability, T/C
experimental value: 99.6
